biological target: His-JNK1 (ref 14-327, Upstate) (UniProt P45983 1-384); assay: kinase inhibition
Sequence (P45983 other isoform, or with tags, fused parts or gaps): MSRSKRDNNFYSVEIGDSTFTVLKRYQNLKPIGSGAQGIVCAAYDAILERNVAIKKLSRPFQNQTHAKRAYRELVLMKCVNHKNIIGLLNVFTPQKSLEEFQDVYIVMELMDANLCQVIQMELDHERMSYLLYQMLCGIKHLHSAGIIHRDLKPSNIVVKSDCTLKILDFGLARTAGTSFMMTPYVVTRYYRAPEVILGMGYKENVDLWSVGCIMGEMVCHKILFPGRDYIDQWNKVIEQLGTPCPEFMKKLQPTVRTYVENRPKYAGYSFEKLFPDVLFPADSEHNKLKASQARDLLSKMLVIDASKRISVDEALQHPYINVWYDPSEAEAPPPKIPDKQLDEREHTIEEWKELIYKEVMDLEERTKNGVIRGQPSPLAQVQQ
Square brackets hold non-standard residues; d marks the D form. Ends that are not written are not given here.
QUANTITY_MEASURED: IC50 (nM)
Numbers only, in nM.

# annotated cases, reported IC50 shown
BINDER	UNIT_ABBREVIATION	IC50
[dR]KKR[dR]QR[dR]RPTTL[dR]L[dW] [SEQ ID NO: 179]	nM	249
[dR]KKR[dR]QRR[dR]GKRKAL[dR]L[dF] [SEQ ID NO: 189]	nM	22300
[dR]KKR[dR]QRR[dR]RP[dK]RP[dK]TLNL[dF] [SEQ ID NO: 187]	nM	594
[dR]KKR[dR]QRR[dR]RP[dA]TLNL[dF] [SEQ ID NO: 182]	nM	1680
[dR]KKR[dR]QRR[dR]RP[dK]RPTTL[dR]L[dF] [SEQ ID NO: 173]	nM	88.4

Would you mind giving IC50 for every binder in the list below?
1. RKKRRQRRRRPKRPATLNLF [SEQ ID NO: 172]
2. [dR]KKR[dR]QR[dR]KRP[dA]TLNL[dF] [SEQ ID NO: 184]
3. [dR]KKR[dR]QRR[dR]RPTDL[dR]L[dW] [SEQ ID NO: 180]

1: 722; 2: 2430; 3: 265
